The reported numbers originate from patent EP4803523A1.

pIC50 values, listed per item
test system: GP2d; experiment: 3D cell proliferation inhibition assay (CellTiter-Glo 3D); type: cell-based; settings: GP2d, 120 h, GP2d cells, KRAS G12D, 3D culture, 5 days with compound
By convention, pIC50 is the negative base-10 log of a molar concentration.

# annotated cases, reported pIC50 shown
COMPOUND	TARGET_OR_SYSTEM	MEASUREMENT_LABEL	MEASURED
C=C1CN2CC(=C)CC2(COc2ncc3c4c(c(-c5ccc(F)c6sc(N)c(C#N)c56)c(F)c3n2)COC4)C1	GP2d	pIC50	8.01
N#Cc1c(N)sc2c(F)ccc(-c3c4c(c5cnc(OCC67CCCN6CC(=C(F)F)C7)nc5c3F)COC4)c12 (single isomer, unassigned) [Example 44A]	GP2d	pIC50	8.59
N#Cc1c(N)sc2c(F)ccc(-c3c4c(c5c(N6C7CCC6CNC7)nc(OCC6(CN7CCC(=CF)CC7)CC6)nc5c3F)COC4)c12	GP2d	pIC50	9.59
N#Cc1c(N)sc2c(F)cnc(-c3c4c(c5c(N6C7CCC6CNC7)nc(OCC6(CN7CCC(=CF)CC7)CC6)nc5c3F)COC4)c12	GP2d	pIC50	9.47
N#Cc1c(N)sc2c(F)ccc(-c3c4c(c5cnc(OCC67CCCN6CC(=CF)C7)nc5c3F)COC4)c12 (stereo not drawn)	GP2d	pIC50	8.77

Could you now consider this next compound?
## Input For the compound shown here, C[C@@H](O)CN1CC2CCC(C1)N2c1nc(OCC2(CN3CCC(=CF)CC3)CC2)nc2c(F)c(-c3ncc(F)c4sc(N)c(C#N)c34)c3c(c12)COC3 , give the reported pIC50.
## Output 9.55
